The measured values listed here are drawn from patent US20240025862A1.

# System: Viola tricolor (VIOTR)
# PROTOCOL TEXT: Post-emergence herbicidal action, greenhouse pot test
# Type: in vivo
# EXPERIMENTAL SETUP: 1.25 g/ha
OBSERVATION TYPE: Post-emergence action against VIOTR (%)

[
  {
    "SMI": "Cn1c(C(F)(F)F)cc(=O)n(-c2cc(Oc3ccccc3OCC(=O)OCC[N+](=O)[O-])c(Br)cc2F)c1=O",
    "ASSAY RESULT": 100
  },
  {
    "SMI": "Cn1c(C(F)(F)F)cc(=O)n(-c2cc(Oc3ccccc3OCC(=O)OCCC[N+](=O)[O-])c(Cl)cc2F)c1=O",
    "ASSAY RESULT": 100
  },
  {
    "SMI": "COCCOCCOC(=O)COc1ccccc1Oc1cc(-n2c(=O)cc(C(F)(F)F)n(C)c2=O)c(F)cc1Br",
    "ASSAY RESULT": 100
  }
]
